target: Jak2 tyrosine kinase (Homo sapiens (Human), UniProt O60674)
Sequence (O60674 whole entry): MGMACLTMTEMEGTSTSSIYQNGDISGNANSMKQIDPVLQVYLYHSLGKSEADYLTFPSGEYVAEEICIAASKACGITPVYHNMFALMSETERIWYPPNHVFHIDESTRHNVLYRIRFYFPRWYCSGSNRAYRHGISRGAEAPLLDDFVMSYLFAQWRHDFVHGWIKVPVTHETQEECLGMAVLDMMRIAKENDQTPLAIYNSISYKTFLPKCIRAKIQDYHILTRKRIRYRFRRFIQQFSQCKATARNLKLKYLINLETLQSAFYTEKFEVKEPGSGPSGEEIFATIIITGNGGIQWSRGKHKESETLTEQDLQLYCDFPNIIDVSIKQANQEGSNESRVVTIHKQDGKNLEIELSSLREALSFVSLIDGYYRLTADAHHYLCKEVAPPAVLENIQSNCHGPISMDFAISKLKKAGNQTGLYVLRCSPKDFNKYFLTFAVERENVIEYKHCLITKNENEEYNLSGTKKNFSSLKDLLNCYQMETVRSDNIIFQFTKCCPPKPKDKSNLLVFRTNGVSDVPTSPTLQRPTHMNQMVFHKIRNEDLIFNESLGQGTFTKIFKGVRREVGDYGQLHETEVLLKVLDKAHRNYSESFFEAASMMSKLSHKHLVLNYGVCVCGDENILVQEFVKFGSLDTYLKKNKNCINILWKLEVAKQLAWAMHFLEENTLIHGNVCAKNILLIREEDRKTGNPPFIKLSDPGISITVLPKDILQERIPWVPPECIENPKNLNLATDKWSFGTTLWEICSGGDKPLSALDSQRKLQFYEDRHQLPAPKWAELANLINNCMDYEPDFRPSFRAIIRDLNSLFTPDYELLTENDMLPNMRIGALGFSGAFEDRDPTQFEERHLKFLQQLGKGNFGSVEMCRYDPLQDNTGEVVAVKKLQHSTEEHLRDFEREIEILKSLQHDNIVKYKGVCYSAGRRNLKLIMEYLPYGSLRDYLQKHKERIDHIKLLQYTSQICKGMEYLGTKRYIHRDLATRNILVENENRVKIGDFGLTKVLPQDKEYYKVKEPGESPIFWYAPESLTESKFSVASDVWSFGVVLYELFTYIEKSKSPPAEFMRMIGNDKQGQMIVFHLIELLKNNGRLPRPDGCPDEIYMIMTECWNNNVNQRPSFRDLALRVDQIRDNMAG
parameter: IC50 (nM)

a = Cc1c(-c2c(Cl)cc(C(N)=O)c3[nH]c4c(c23)CC[C@H](C(C)(C)O)C4)cccc1-n1c(=O)c2cccc(F)c2n(C)c1=O (atropisomer, axis not shown)
b = Cc1c(-c2c(Cl)cc(C(N)=O)c3[nH]c4cc(C(C)(C)O)ccc4c23)cccc1-n1c(=O)cc2c(F)cccn2c1=O (single isomer, unassigned)
c = [2H]C([2H])([2H])n1c(=O)n(-c2cccc(-c3c(Cl)cc(C(N)=O)c4[nH]c5cc(C(C)(C)O)ccc5c34)c2C)c(=O)c2cccc(F)c21 (single isomer, unassigned)
# rank above entries by IC50 (max first, min last) Provide the labels, sequenced as the question asks.
a, c, b
(a: 7500 nM, c: 1900 nM, b: 800 nM)
